# METHOD_SUMMARY: qHTS assay to identify small molecule agonists of the AP-1 signaling pathway - cell viability counter screen (AID 1159525); further: nearly all actives have a fitted effect of over 55% in size; further: potency means the concentration at half of the fitted maximal effect
# MEASUREMENT_SETUP: ME-180 (cervical carcinoma) AP-1-bla cells viability, ATP luminescence, 5 h; series mostly up to 76.8 µM
Inconclusive results are not listed. Active and inactive are the calls of the source. The call rests on the fitted dose curve.
MEASURED_PARAMETER: Potency

[[record]]
chemical_smiles = "CC(C)(C)c1cc(/C=C2\\SC(=N)NC2=O)cc(C(C)(C)C)c1O"
measured_parameter = "Potency"
result = "inactive"

[[record]]
chemical_smiles = "C[C@@H]1CC[C@H]2C(C)(C)[C@H]3C[C@@]12CC[C@@]3(C)O"
measured_parameter = "Potency"
result = "inactive"

[[record]]
chemical_smiles = "Oc1cc2ccccc2cc1O"
measured_parameter = "Potency"
result = "inactive"

[[record]]
chemical_smiles = "O=C1C=CC(=O)N1c1ccccc1"
measured_parameter = "Potency"
result = "24.5 µM (active)"

[[record]]
chemical_smiles = "CC(=O)C=O"
measured_parameter = "Potency"
result = "inactive"

[[record]]
chemical_smiles = "CCCCCCOc1cc(C)c(O)c(C)c1C"
measured_parameter = "Potency"
result = "44.2 µM (active)"


====

# TARGET_OR_SYSTEM: Peroxisome proliferator-activated receptor delta (Homo sapiens) (UniProt Q03181)
# Sequence (Q03181 whole entry, looked up): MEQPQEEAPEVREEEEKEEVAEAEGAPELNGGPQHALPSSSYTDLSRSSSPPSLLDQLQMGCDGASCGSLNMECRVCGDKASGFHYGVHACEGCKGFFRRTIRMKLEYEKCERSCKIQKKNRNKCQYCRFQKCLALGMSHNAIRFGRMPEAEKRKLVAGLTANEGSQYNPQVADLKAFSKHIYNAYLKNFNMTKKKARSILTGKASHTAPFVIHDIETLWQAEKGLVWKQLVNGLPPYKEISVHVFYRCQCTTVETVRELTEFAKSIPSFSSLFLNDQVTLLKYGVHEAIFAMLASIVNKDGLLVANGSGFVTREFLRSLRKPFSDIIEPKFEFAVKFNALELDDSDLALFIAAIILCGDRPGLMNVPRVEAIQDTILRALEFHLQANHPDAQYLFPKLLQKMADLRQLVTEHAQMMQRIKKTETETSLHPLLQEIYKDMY
# METHOD_SUMMARY: qHTS assay to identify small molecule antagonists of the peroxisome proliferator-activated receptor delta (PPARd) signaling pathway (AID 743215);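 further: cells stimulated with agonist L165041 at 300 nM final during compound exposure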
# MEASUREMENT_SETUP: HEK293H PPARd-UAS-bla, beta-lactamase FRET ratio, antagonist, 17 h; series mostly up to 62 µM
# Text: U.S. Tox21 Program National Center for Advancing Translational Sciences [NCATS] NIH Chemical Genomics Center [NCGC] U.S. Environmental Protection Agency [EPA] National Institutes of Environmental Health Sciences [NIEHS] National Toxicology Program [NTP] U.S. Food and Drug Administration [FDA] […]
Records with an inconclusive call do not appear. Activity calls are given as the source filed them. The call rests on the fitted dose curve; in most records, active means well fitted inhibition curve with a large enough effect in the signal ratio in the repeat runs (not every such curve was filed as active); inconclusive means weak or mixed curves, or effect the other way; inactive means no such curve, though single readings can be large or run the other way; the % refers to the signal ratio.
Labels: True for active, False for inactive

[[record]]
chemical_smiles = "CCN(CC)CCCN(c1ccccc1)C1Cc2ccccc2C1"
label = "False"

[[record]]
chemical_smiles = "Cc1ccc2ccc3cccc4ccc1c2c34"
label = "False"

[[record]]
chemical_smiles = "CCCCCCOc1cc(C)c(O)c(C)c1C"
label = "False"

[[record]]
chemical_smiles = "CCCCOc1ccc(C(=O)CCN2CCCCC2)cc1"
label = "False"

[[record]]
chemical_smiles = "NC(=O)c1ccccc1N"
label = "False"

[[record]]
chemical_smiles = "CCCCNc1c(C(=O)OCC)c(C)nc2c1cnn2CC"
label = "False"

[[record]]
chemical_smiles = "c1ccc(Nc2cccc3ccccc23)cc1"
label = "False"

[[record]]
chemical_smiles = "CCCCCCCCCCCCCCCC"
label = "False"

[[record]]
chemical_smiles = "CCN(CC)CCNc1ccc(CO)c2sc3ccccc3c(=O)c12"
label = "True"


====

# METHOD_SUMMARY: qHTS assay for identifying genotoxic compounds that show differential cytotoxicity against isogenic chicken DT40 cell lines with known DNA damage response pathways - Rev3 mutant cell line (AID 743014); further: nearly all actives have a fitted effect of over 55% in size
# MEASUREMENT_SETUP: chicken DT40 Rev3-/- viability, CellTiter-Glo, 40 h; series mostly up to 68.4 µM
Results filed as inconclusive are left out. Activity calls are given as the source filed them. The call rests on the fitted dose curve; in most records, active means well fitted cell-killing curve with a large enough effect in the repeat runs; inconclusive means weak or mixed curves, or effect the other way; inactive means no such curve, though single readings can be large or run the other way.
Labels: true (1) = active, false (0) = inactive

[[record]]
molecule = "O=Nc1ccc(NO)cc1"
label = "false (0)"

[[record]]
molecule = "Cc1cccc(Br)c1"
label = "false (0)"

[[record]]
molecule = "S=C(SSSSSSC(=S)N1CCCCC1)N1CCCCC1"
label = "true (1)"

[[record]]
molecule = "N#CSCSc1nc2ccccc2s1"
label = "true (1)"

[[record]]
molecule = "CC(O)C#CC(C)O (stereo unspecified)"
label = "true (1)"

[[record]]
molecule = "CCC(C)c1cc([N+](=O)[O-])cc([N+](=O)[O-])c1OC(=O)OC(C)C (stereo unspecified)"
label = "true (1)"

[[record]]
molecule = "Cc1cc2c(C(C)C)c(O)c(O)c(C=O)c2c(O)c1-c1c(C)cc2c(C(C)C)c(O)c(O)c(C=O)c2c1O"
label = "true (1)"

[[record]]
molecule = "CC(=O)Oc1ccc(C2(c3ccc(OC(C)=O)cc3)C(=O)Nc3ccccc32)cc1"
label = "false (0)"

[[record]]
molecule = "O=C(O)CCCCCCC(=O)O"
label = "false (0)"

[[record]]
molecule = "c1ccc(Sc2ccccc2)cc1"
label = "true (1)"

[[record]]
molecule = "CC(C)N=C(N)/N=C(\\N)Nc1ccc(Cl)cc1"
label = "true (1)"

[[record]]
molecule = "NC(=O)c1nc(-c2cccc(-c3cc(F)ccc3OCC(F)(F)C(F)(F)F)c2)n[nH]1"
label = "true (1)"

[[record]]
molecule = "Cc1c(-c2ccc(O)cc2)n(Cc2ccc(OCCN3CCCCCC3)cc2)c2ccc(O)cc12"
label = "true (1)"

[[record]]
molecule = "CCc1ccc(O)c(C(C)(C)C)c1"
label = "true (1)"

[[record]]
molecule = "CCCCCCOc1ccc(O)cc1"
label = "true (1)"

[[record]]
molecule = "O=Cc1ccc(F)cc1"
label = "true (1)"

[[record]]
molecule = "C=CC(=O)OCCC#N"
label = "false (0)"

[[record]]
molecule = "Cc1ccc(N)cc1O"
label = "true (1)"

[[record]]
molecule = "CCc1cccc(C)c1"
label = "false (0)"

[[record]]
molecule = "C=CC(=O)OCC(O)COc1ccccc1 (stereo unspecified)"
label = "true (1)"

[[record]]
molecule = "O=C(NO)c1ccccc1"
label = "true (1)"

